Tested on: Yersinia enterocolitica
Experiment: Antimicrobial activity against beta-lactamase A-deficient Yersinia enterocolitica GY5717 after 20 hrs by Etest
Assay type: functional
Details: GY5717, 20 h
Parameter Measured: MIC (µg/mL)

[I] CO/N=C(\C(=O)N[C@@H]1C(=O)N2C(C(=O)O)=C(COC(C)=O)CS[C@H]12)c1csc(N)n1 [CEFOTAXIME]
[II] CO/N=C(\C(=O)N[C@@H]1C(=O)N2C(C(=O)O)=C(CSc3nc(=O)c(O)nn3C)CS[C@H]12)c1csc(N)n1 [CEFTRIAXONE]
[III] C[C@@H](O)[C@H]1C(=O)N2C(C(=O)O)=C(SCCNC=N)C[C@H]12 [IMIPENEM ANHYDROUS]
[IV] CC1(C)S[C@@H]2[C@H](NC(=O)[C@H](N)c3ccccc3)C(=O)N2[C@H]1C(=O)O [AMPICILLIN]
### Prompt Which order do these items take when sorted by rising MIC? List them. Please reply with the labels ordered as requested. Many thanks.
### Response II, I, III, IV
